Cited source: the supplement of paper PMC9938120

Test system: FMOC02_3 (patient-derived low-grade serous ovarian cancer cells)
Assay: drug sensitivity score (DSS3, normalised partial AUC of % inhibition dose-response) (DSS (score)); higher = more sensitive (stronger inhibition of viability); extreme values may be limits of the assay
Details: 72 h; library: FO5A; assay format: 2D, 384-well, CellTiter-Glo
outcomeMeasure: drug sensitivity score

Example results:
compound	reading
CCCCCCCCCCCCCCCCCCOP(=O)([O-])OC1CC[N+](C)(C)CC1	0
CC1(C)CCC(c2ccc(Cl)cc2)=C(CN2CCN(c3ccc(C(=O)NS(=O)(=O)c4ccc(N[C@H](CCN5CCOCC5)CSc5ccccc5)c(S(=O)(=O)C(F)(F)F)c4)cc3)CC2)C1	21.9
NC(=O)c1cccc2cn(-c3ccc([C@@H]4CCCNC4)cc3)nc12	6.6
COCCNCc1ccc(-c2cc3nccc(Oc4ccc(NC(=O)C5(C(=O)Nc6ccc(F)cc6)CC5)cc4F)c3s2)nc1	2.5
CCNC(=O)c1noc(-c2cc(C(C)C)c(O)cc2O)c1-c1ccc(CN2CCOCC2)cc1	23

# drug sensitivity score measured on FMOC02_3 for item "C=CC(=O)Nc1cc2c(Nc3ccc(F)c(Cl)c3)ncnc2cc1OCCCN1CCOCC1" = 18.7
